target-or-system: Serine/threonine-protein phosphatase PP1-alpha catalytic subunit (Homo sapiens)
protocol-summary: inhibition of human PP1 catalytic subunit – biochemical, fluorescence, OMFP substrate, single point, counter-screen for PP5 inhibitor project, primary screen (AID 2235)
assay-setup: purified PP1alpha, at 6.7 µM, hits give high values
Among all 320,000 compounds or so, about 2,800 (0.88%) were called active. The full list was thinned out, with actives kept by preference.
parameter-measured: inhibition (%)
Provide the reading as a plain figure in %.

C/C(=N/NC(=O)CCc1ccccc1)c1ccco1 | -1.45
COc1ccc(/C=N/NC(=O)Nc2ccc3nsnc3c2)c(OC)c1 | 15.8
COc1ccc(/C=N/NC(=O)c2ccc3c(c2)OCCO3)c(OC)c1 | -5.02

Provide only the value of recorded inhibition for CCOc1ccc(N(CC(=O)Nc2cccc(OC)c2)S(C)(=O)=O)cc1 -2.47

Provide only the value of recorded inhibition for O=C(NCc1ccccc1)C(c1cccnc1)N(C(=O)c1csnn1)c1ccc(F)cc1 (stereo not given) 8.74

Provide only the value of recorded inhibition for Clc1ccc2c(c1)C1=C(C(c3ccncc3)O2)C(c2ccc(Br)cc2)n2ncnc2N1 (stereo not given) 20.3

Provide only the value of recorded inhibition for CCOc1ccc(CNC(=O)C2CCCN(c3nnc(C)c4c(C)n(-c5ccccc5)nc34)C2)cc1 (stereo not given) 1.12

Provide only the value of recorded inhibition for Brc1ccc(C2=CC(c3ccco3)n3ncnc3N2)cc1 (stereo not given) 0.45

Provide only the value of recorded inhibition for CC1=C(C(N)=O)C(c2ccc(Br)cc2)n2ncnc2N1 (stereo not given) 1.51

Provide only the value of recorded inhibition for CCN(CC)c1ccc(NC(=O)CN2C(=O)NC3(CCc4ccccc43)C2=O)cc1 (stereo not given) 3.2

###

target-or-system: Serine/threonine-protein phosphatase PP1-alpha catalytic subunit (Homo sapiens) (UniProt P62136)
Sequence (P62136 whole entry, looked up): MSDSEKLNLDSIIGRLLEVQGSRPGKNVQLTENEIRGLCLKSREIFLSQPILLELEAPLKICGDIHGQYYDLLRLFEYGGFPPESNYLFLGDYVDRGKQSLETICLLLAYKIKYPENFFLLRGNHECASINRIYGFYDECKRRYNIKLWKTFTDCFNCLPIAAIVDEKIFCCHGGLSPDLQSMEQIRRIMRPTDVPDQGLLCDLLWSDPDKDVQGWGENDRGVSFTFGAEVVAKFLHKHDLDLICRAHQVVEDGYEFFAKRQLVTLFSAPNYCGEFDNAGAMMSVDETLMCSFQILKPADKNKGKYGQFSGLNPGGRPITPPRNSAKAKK
protocol-summary: inhibition of human PP1 catalytic subunit – biochemical, fluorescence, OMFP substrate, single point, counter-screen for PP5 inhibitor project, primary screen (AID 2235)
assay-setup: purified PP1alpha, at 6.7 µM, hits give high values
Out of some 320,000 compounds screened, about 2,800 (0.88%) were called active. This is one part of a sample in which actives are shown more often than they occur.
parameter-measured: inhibition (%)
Provide the reading as a plain figure in %.

O=C(CCN1C(=O)[C@@H]2Cc3ccccc3CN2C1=O)NCCc1ccccc1 | -2.43

Provide only the value of recorded inhibition for Cc1cc(NC(=O)CSCc2nc(-c3cccc(Cl)c3)oc2C)no1 0.91

Provide only the value of recorded inhibition for CCN(CC)Cc1c(C(=O)N/N=C/c2cccc(OCc3ccc(F)cc3)c2)nnn1-c1nonc1N -5.41

Provide only the value of recorded inhibition for COC(=O)CCCC1=CC2=C(c3ccccc3)C(=O)C(C)(OC(=O)C3CCCC3)C(=O)C2=CN1c1ccc(OC)cc1 (stereo not given) -4.53

Provide only the value of recorded inhibition for O=C(COC(=O)c1ccc(Oc2ccccc2)cc1)Nc1nnc(-c2ccccc2)o1 23.5

###

target-or-system: Serine/threonine-protein phosphatase PP1-alpha catalytic subunit (Homo sapiens) (UniProt P62136)
protocol-summary: inhibition of human PP1 catalytic subunit – biochemical, fluorescence, OMFP substrate, single point, counter-screen for PP5 inhibitor project, primary screen (AID 2235)
assay-setup: purified PP1alpha, at 6.7 µM, hits give high values
The campaign covered roughly 320,000 compounds. About 2,800 (0.88%) were called active. The list comes from a sample in which actives are over-represented; it also holds close analogues and randomly drawn compounds.
parameter-measured: inhibition (%)
Provide the reading as a plain figure in %.

Solved cases (3 shown):
COc1ccc(N2CCN(S(=O)(=O)c3ccc4c(c3)NC(=O)C(C)C(=O)N4)CC2)cc1 (stereo unspecified) | -1.74
CN1C(=O)c2ccc(C(=O)Nc3ccc(Br)cn3)cc2C1=O | -4.13
Cc1ccc(NC(=S)NC(NC(=O)Cc2cccc3ccccc23)C(Cl)(Cl)Cl)cc1 (stereo unspecified) | 16.6

Provide only the value of recorded inhibition for Cc1ccc(N=C2NC(=O)c3cccc([N+](=O)[O-])c32)cc1 -1.21

Provide only the value of recorded inhibition for C#CCCCc1nc2ccccc2c(=O)n1N -2.85

Provide only the value of recorded inhibition for Cc1ccc2c(c1)NCC(C(=O)NC1CCC(C)CC1)O2 (stereo unspecified) -3.3

Provide only the value of recorded inhibition for Cc1nnc(NC(=O)/C=C/c2ccco2)s1 -3.35

###

target-or-system: Serine/threonine-protein phosphatase PP1-alpha catalytic subunit (Homo sapiens)
protocol-summary: inhibition of human PP1 catalytic subunit – biochemical, fluorescence, OMFP substrate, single point, counter-screen for PP5 inhibitor project, primary screen (AID 2235)
assay-setup: purified PP1alpha, at 6.7 µM, hits give high values
In all, about 320,000 compounds went through this assay and about 2,800 (0.88%) were called active. For the sample, actives were picked, then their nearest neighbours and some compounds at random.
Below, each entry is listed alongside its reported inhibition.
Provide the reading as a plain figure in %.

Solved cases (3 shown):
N=c1n(Cc2ccc(Cl)cc2)c2ccccc2n1CC(O)c1ccco1 (stereo unspecified) | 21.9
CS(=O)(=O)c1ccc2c(c1)SC1=NC(=O)/C(=C/c3ccco3)C(=N)N12 | 24.5
O=C(CSc1nc2ccccc2[nH]1)N/N=C/C=C\c1ccccc1[N+](=O)[O-] | -2.41

Provide only the value of recorded inhibition for CCc1ccc(Nc2n[n+](-c3ccccc3)c(-c3cccc(Cl)c3Cl)s2)cc1 14.2

Provide only the value of recorded inhibition for O=C(NC(=S)NC1CCS(=O)(=O)C1)c1cccc([N+](=O)[O-])c1 (stereo unspecified) -0.09

Provide only the value of recorded inhibition for O=C1CCCCN1CCCC(=O)N1CCCC(Nc2ccc(F)cc2)C1 (stereo unspecified) -8.73

Provide only the value of recorded inhibition for COc1ccccc1/C=N/Nc1nc(C)c(C(C)=O)s1 1.23

Provide only the value of recorded inhibition for COc1ccccc1/C=N\Nc1cc(C)nc(-n2nc(C)cc2C)n1 30.7

Provide only the value of recorded inhibition for Nn1c(SCc2ccccc2)nnc1C1CCCCC1 -2.09

Provide only the value of recorded inhibition for O=C(N=C1SC2CS(=O)(=O)CC2N1c1cc(Cl)ccc1Cl)C1CC1 (stereo unspecified) 18.9

Provide only the value of recorded inhibition for Cc1ccc(NS(=O)(=O)c2ccc(N/N=C/c3ccccc3OCC(=O)O)c([N+](=O)[O-])c2)c(C)c1 21.9

Provide only the value of recorded inhibition for Cc1cc(N/N=C\c2ccc(Br)cc2)nc(-n2nc(C)cc2C)n1 21.7

Provide only the value of recorded inhibition for COc1cc(Br)c(-c2sc(Nc3ccccc3)n[n+]2-c2ccccc2)cc1OC -0.57

Provide only the value of recorded inhibition for CN1OC(COC(=O)c2ccc(Cl)cc2)CC1c1ccccc1 (stereo unspecified) 1.23

Provide only the value of recorded inhibition for CCOc1cc(C)ccc1OCc1nnc(SCC(=O)Nc2cccc(C(=O)O)c2)n1-c1ccccc1 -6.28

Provide only the value of recorded inhibition for CCCC[C@H]1COCCS(=O)(=O)N1Cc1cccc(Cl)c1 -6.26

Provide only the value of recorded inhibition for CN(C)/C=C(/C(=O)c1ccc(Cl)cc1)S(=O)(=O)c1ccccc1 0.05

Provide only the value of recorded inhibition for Cc1ccc(Nc2nc(CSc3nnnn3-c3ccccc3)cc(=O)[nH]2)cc1 37.6

Provide only the value of recorded inhibition for COc1ccc(C)cc1-n1nnnc1SCc1nc2ccccc2c(=O)[nH]1 9.72

Provide only the value of recorded inhibition for CCNC(=O)NC(=O)C(C)OC(=O)c1cc(S(=O)(=O)N2CCCCCC2)ccc1OC (stereo unspecified) 1.67

Provide only the value of recorded inhibition for CCOc1ccccc1N1CN(Cc2ccccc2)CNC1=S -3.54

Provide only the value of recorded inhibition for CCCn1nc(C(=O)Nc2ccc3nc(C)sc3c2)c2ccccc2c1=O -3.9

Provide only the value of recorded inhibition for CS(=O)(=O)N(CC(=O)N1CCN(c2cccc(Cl)c2)CC1)c1ccccc1 -1.41

Provide only the value of recorded inhibition for CCn1cc(CNC(=O)c2cc([N+](=O)[O-])c(C)c([N+](=O)[O-])c2)cn1 -2.81

Provide only the value of recorded inhibition for CC(=O)c1ccc(N2C(=NC(=O)C(C)C)SC3CS(=O)(=O)CC32)cc1 (stereo unspecified) -3.39

Provide only the value of recorded inhibition for NS(=O)(=O)c1ccc(NC(=S)Nc2ccc(Br)c(Cl)c2)cc1 0.34

###

target-or-system: Serine/threonine-protein phosphatase PP1-alpha catalytic subunit (Homo sapiens)
protocol-summary: inhibition of human PP1 catalytic subunit – biochemical, fluorescence, OMFP substrate, single point, counter-screen for PP5 inhibitor project, primary screen (AID 2235)
assay-setup: purified PP1alpha, at 6.7 µM, hits give high values
About 2,800 (0.88%) of roughly 320,000 compounds were called active. The entries come from a sample that favours actives as a whole.
parameter-measured: inhibition (%)
Provide the reading as a plain figure in %.

COc1ccc(S(=O)(=O)N(C)CC(=O)N2CCCC2)cc1Cl | -3.22
Cc1nccc(-c2ccc(-n3c(C)ccc3C)cc2)n1 | -1.67
Cc1noc(C)c1S(=O)(=O)NCCc1ccc(S(N)(=O)=O)cc1 | -1.43
O=C(N/N=C\C1CC=CCC1)c1ccc(Br)o1 (stereo not drawn) | 2.42
Cc1ccc(NC(=O)CSc2nnc(-c3cnccn3)n2Cc2ccco2)cc1C | 1.95
O=C(c1cc(C(=O)N2CCN(c3ccc(F)cc3)CC2)cc([N+](=O)[O-])c1)N1CCN(c2ccc(F)cc2)CC1 | 1.38

Provide only the value of recorded inhibition for O=C(Nc1ccccc1F)c1ccc(S(=O)(=O)N2CCCCCC2)cc1 0.94

Provide only the value of recorded inhibition for COC(=O)Nc1ccc(S(=O)(=O)Nc2cc(OC)nc(OC)n2)cc1 0.14

Provide only the value of recorded inhibition for Cc1ccc(C(=O)NNC(=O)c2cccs2)cc1 3.43

Provide only the value of recorded inhibition for COc1ccccc1NS(=O)(=O)N(C)C 6.89

Provide only the value of recorded inhibition for COC(=O)c1ccc(-n2cnc3ccccc32)nc1 1.21

Provide only the value of recorded inhibition for COC(=O)Cn1cc(/C=C/[N+](=O)[O-])c2ccccc21 -3.58

Provide only the value of recorded inhibition for CCc1ccc(NC(=O)CSc2nnc(-c3cnccn3)n2Cc2ccco2)cc1 2.61

Provide only the value of recorded inhibition for COc1ccc(-c2ocnc2C(=O)Nc2ccc3c(c2)CCC3)cc1 -2.76

Provide only the value of recorded inhibition for Oc1ccccc1C1=NN(c2ccccc2)C(c2ccccc2)C1 (stereo not drawn) 0.4

Provide only the value of recorded inhibition for Cc1ccc(OCCC(=O)OCC(=O)N2c3ccccc3NC(=O)C2(C)C)cc1 0.61

Provide only the value of recorded inhibition for N#Cc1c(Cl)nc(-c2cccnc2)nc1-c1ccccc1 -1.04

The reported measurements were obtained from PubChem BioAssay AID2235.
